Test system: A549-NF-κB-SEAP reporter cells
EXPERIMENT_SUMMARY: Inhibition of NF-κB-induced inflammation ([…] NINA Instant Assay, SEAP reporter)
Type: cell-based
TEST_SETTINGS: compounds of formula (I); TNF-α stimulated reporter cells; test concentration not given
ATTRIBUTE_MEASURED: Biological activity (NF-κB inflammation assay, inhibition)

O=C(C=Cc1ccccc1)N1CCC(c2nc(C(=O)N3CCN(c4cccc(C(F)(F)F)c4)CC3)cs2)CC1 = ++ (“++” means 80-90%)
CN1CCOc2cc(C(=O)N3CCC(c4nc(C(=O)N5CCN(c6cccc(C(F)(F)F)c6)CC5)cs4)CC3)ccc21 = ++ (“++” means 80-90%)

###

Tested on: A549-NF-κB-SEAP reporter cells
EXPERIMENT_SUMMARY: Inhibition of NF-κB-induced inflammation ([…] NINA Instant Assay, SEAP reporter)
Type: cell-based
TEST_SETTINGS: compounds of formula (I); TNF-α stimulated reporter cells; test concentration not given
ATTRIBUTE_MEASURED: Biological activity (NF-κB inflammation assay, inhibition)

O=C(c1csc(C2CCN(c3ccccn3)CC2)n1)N1CCN(c2cccc(C(F)(F)F)c2)CC1 = ++ (“++” means 80-90%)
COc1nc(OC)nc(N2CCN(C(=O)c3csc(C4CCNCC4)n3)CC2)n1 = ++ (“++” means 80-90%)

###

Tested on: A549-NF-κB-SEAP reporter cells
EXPERIMENT_SUMMARY: Inhibition of NF-κB-induced inflammation ([…] NINA Instant Assay, SEAP reporter)
Format: cell-based
TEST_SETTINGS: compounds of formula (I); TNF-α stimulated reporter cells; test concentration not given
ATTRIBUTE_MEASURED: Biological activity (NF-κB inflammation assay, inhibition)

N#Cc1ccc(C(=O)N2CCC(c3nc(C(=O)N4CCN(c5cccc(C(F)(F)F)c5)CC4)cs3)CC2)cc1 = ++ (“++” means 80-90%)
Cn1nc(C(C)(C)C)cc1C(=O)N1CCC(c2nc(C(=O)N3CCN(c4cccc(C(F)(F)F)c4)CC3)cs2)CC1 = ++ (“++” means 80-90%)
COc1cc(N2CCC(c3nc(C(=O)N4CCN(c5cccc(C(F)(F)F)c5)CC4)cs3)CC2)nc(OC)n1 = ++ (“++” means 80-90%)

###

Tested on: A549-NF-κB-SEAP reporter cells
EXPERIMENT_SUMMARY: Inhibition of NF-κB-induced inflammation ([…] NINA Instant Assay, SEAP reporter)
Type: cell-based
TEST_SETTINGS: compounds of formula (II); TNF-α stimulated reporter cells; test concentration not given
ATTRIBUTE_MEASURED: Biological activity (NF-κB inflammation assay, inhibition)

CC(=O)c1ccc(N2CCN(c3nc(C(=O)N4CCN(c5cccc(C(F)(F)F)c5)CC4)cs3)CC2)cc1 = ++ (“++” means 80-90%)
COc1ccccc1N1CCN(C(=O)c2csc(NC(=O)c3ccccc3OC(F)(F)F)n2)CC1 = ++ (“++” means 80-90%)
O=C(Nc1nc(C(=O)N2CCN(C(c3ccccc3)c3ccccc3)CC2)cs1)c1ccccc1OC(F)(F)F = ++ (“++” means 80-90%)

###

System: A549-NF-κB-SEAP reporter cells
EXPERIMENT_SUMMARY: Inhibition of NF-κB-induced inflammation ([…] NINA Instant Assay, SEAP reporter)
Format: cell-based
TEST_SETTINGS: compounds of formula (I); TNF-α stimulated reporter cells; test concentration not given
ATTRIBUTE_MEASURED: Biological activity (NF-κB inflammation assay, inhibition)

COc1ccc(Cl)cc1S(=O)(=O)N1CCC(c2nc(C(=O)N3CCN(c4cccc(C(F)(F)F)c4)CC3)cs2)CC1 = ++ (“++” means 80-90%)
O=C(c1csc(C2CCN(Cc3cccc(OC(F)(F)F)c3)CC2)n1)N1CCN(c2cccc(C(F)(F)F)c2)CC1 = ++ (“++” means 80-90%)
O=C(c1csc(C2CCN(S(=O)(=O)c3cc(C(F)(F)F)cc(C(F)(F)F)c3)CC2)n1)N1CCN(c2cccc(C(F)(F)F)c2)CC1 = ++ (“++” means 80-90%)

###

Tested on: A549-NF-κB-SEAP reporter cells
EXPERIMENT_SUMMARY: Inhibition of NF-κB-induced inflammation ([…] NINA Instant Assay, SEAP reporter)
Format: cell-based
TEST_SETTINGS: compounds of formula (II); TNF-α stimulated reporter cells; test concentration not given
ATTRIBUTE_MEASURED: Biological activity (NF-κB inflammation assay, inhibition)

CC(C)(C)OC(=O)N1CCN(c2nc(C(=O)N3CCN(c4cccc(C(F)(F)F)c4)CC3)cs2)CC1 = ++ (“++” means 80-90%)
COc1ccccc1N1CCN(c2nc(C(=O)N3CCN(c4cccc(C(F)(F)F)c4)CC3)cs2)CC1 = ++ (“++” means 80-90%)
